Literature survey of pKi (system: SYK kinase (Homo sapiens, UniProt P43405)).
pKi: −log10 of the molar value.

The following compounds have reported results that may help.
O=C1COc2ccc(Nc3nc(-c4cccs4)nc4cn[nH]c34)cc2N1 ... > 8.00
Fc1cccc(-c2cnoc2-c2c[nH]c3ncc(-c4ccc(CN5CCCC5)cc4)cc23)c1F ... 4.90 to 6.00
COc1ccc(Nc2nc(-c3cc(F)cc(F)c3)nc3cn[nH]c23)cc1OC ... 6.00 to 7.00

Kindly review the next compound as well.
## Task Reported pKi, compound `COc1ccc2nc(Nc3ccc4[nH]cnc4c3)c3n[nH]cc3c2c1` : ____
## Result 7.00 to 8.00
